# Tested on: Quackgrass
# assay remarks: post-emergence herbicidal activity, greenhouse
# Assay type: in vivo
# applied conditions: Table II; 4 WAT; 5.6 kg/h
property measured: Plant Response Index (H)

Known Plant Response Index (H) results, listed for orientation:
compound	test system	Plant Response Index (H)
CC(C)(C)[Si](OP(=O)(O)CNCC(=O)OCCCl)(c1ccccc1)c1ccccc1 [Ex. 8, Hydrate]	Quackgrass	4 (100% inhibition)
CCOC(=O)CNCP(=O)(O)O[Si](c1ccccc1)(c1ccccc1)C(C)(C)C	Quackgrass	4 (100% inhibition)
CC(C)(C)[Si](OP(=O)(O)CNCC(=O)O)(c1ccccc1)c1ccccc1	Quackgrass	0 (0-24% inhibition)

// next item, Plant Response Index (H) requested
Which measured Plant Response Index (H) value corresponds to `CCCCOC(=O)CNCP(=O)(O)O[Si](c1ccccc1)(c1ccccc1)C(C)(C)C` ?
0 (0-24% inhibition)

----------
Item-by-item account of Plant Response Index (J)
# System: Downy Brome
# assay remarks: post-emergence herbicidal activity, greenhouse
# Assay type: in vivo
# applied conditions: Table III; 4 WAT; 5.6 kg/h; formulated in anhydrous tetrahydrofuran

Known Plant Response Index (J) results, listed for orientation:
molecule	test system	experimental result
CCCCOC(=O)CNCP(=O)(O)O[Si](c1ccccc1)(c1ccccc1)C(C)(C)C [Ex. 6]	Downy Brome	2 (50-74% inhibition)
CCOC(=O)CNCP(=O)(O)O[Si](c1ccccc1)(c1ccccc1)C(C)(C)C [Ex. 7]	Downy Brome	3 (75-99% inhibition)
CC(C)(C)[Si](OP(=O)(O)CNCC(=O)O)(c1ccccc1)c1ccccc1 [Ex. 5]	Downy Brome	0 (0-24% inhibition)

Which measured Plant Response Index (J) value corresponds to CCCCOC(=O)CNCP(=O)(O)O[Si](C)(C)C(C)(C)C [Ex. 3] ?
1 (25-49% inhibition)

----------
Item-by-item account of Plant Response Index (R)
# System: Hemp Sesbania
# assay remarks: post-emergence herbicidal activity, greenhouse
# Assay type: in vivo
# applied conditions: Table III; 2 WAT; .28 kg/h; formulated in anhydrous tetrahydrofuran

smiles input	test system	property measured	experimental result
CCCCOC(=O)CNCP(=O)(O)O[Si](C)(C)C(C)(C)C	Hemp Sesbania	Plant Response Index (R)	1 (25-49% inhibition)
CC(C)(C)[Si](OP(=O)(O)CNCC(=O)O)(c1ccccc1)c1ccccc1	Hemp Sesbania	Plant Response Index (R)	0 (0-24% inhibition)
CCOC(=O)CNCP(=O)(O)O[Si](c1ccccc1)(c1ccccc1)C(C)(C)C	Hemp Sesbania	Plant Response Index (R)	0 (0-24% inhibition)

// next item, Plant Response Index (R) requested
Which measured Plant Response Index (R) value corresponds to `CCCCOC(=O)CNCP(=O)(O)O[Si](c1ccccc1)(c1ccccc1)C(C)(C)C` ?
0 (0-24% inhibition)

----------
# Test system: Large Crabgrass
# assay remarks: post-emergence herbicidal activity, greenhouse
# Type: in vivo
# applied conditions: Table III; 2 WAT; 5.6 kg/h
Item-by-item account of Plant Response Index (T)

Which measured Plant Response Index (T) value corresponds to CC(C)OC(=O)CNCP(=O)(O)O[Si](c1ccccc1)(c1ccccc1)C(C)(C)C [Ex. 2] ?
3 (75-99% inhibition)

Which measured Plant Response Index (T) value corresponds to CC(C)OC(=O)CNCP(=O)(O[Si](c1ccccc1)(c1ccccc1)C(C)(C)C)O[Si](c1ccccc1)(c1ccccc1)C(C)(C)C [Ex. 1] ?
4 (100% inhibition)

Which measured Plant Response Index (T) value corresponds to CCCCOC(=O)CNCP(=O)(O)O[Si](c1ccccc1)(c1ccccc1)C(C)(C)C [Ex. 6] ?
4 (100% inhibition)

Which measured Plant Response Index (T) value corresponds to CC(C)(C)[Si](C)(C)OP(=O)(CNCC(=O)OCCc1ccccc1)O[Si](C)(C)C(C)(C)C [Ex. 10, Hydrate] ?
3 (75-99% inhibition)

Values from patent US4471131A
